# Tested on: Dukin-Hartley guinea pigs
# assay-protocol: Bronchodilating activity in vivo (Konzett and Rossler), histamine bronchospasm
# Design: species or system guinea pig
# experimental-parameters: Cavia porcellus, iv, 5 min; I.V. histamine tested 5 minutes after injection of the product; effective dose for 50% inhibition; anaesthetized guinea pigs; read-out: Bronchospam ED50 at 5 min
Give measured ED50 for each item. Keep answers brief.
Numbers only, in mg/kg.

# count of solved cases: 6
- chemical-string: "CC1(C)C=C(c2cccc[n+]2[O-])c2cc(Cl)ccc2OC1"
  quantity-kind: "ED50"
  endpoint-value: 0.1
- chemical-string: "CC1(C)C=C(c2cccc[n+]2[O-])c2cc(C#N)ccc2OC1"
  quantity-kind: "ED50"
  endpoint-value: 0.038
- chemical-string: "CC1(C)C=C(c2cccc[n+]2[O-])c2cc(C(F)(F)F)ccc2OC1"
  quantity-kind: "ED50"
  endpoint-value: 0.069
- chemical-string: "CC1(C)C=C(c2cccc[n+]2[O-])c2cc(Cl)c(Cl)cc2OC1"
  quantity-kind: "ED50"
  endpoint-value: 0.049
- chemical-string: "CC1(C)C=C(c2cccc[n+]2[O-])c2cc(F)c(F)cc2OC1"
  quantity-kind: "ED50"
  endpoint-value: 0.04
- chemical-string: "CC1(C)C=C(c2cccc[n+]2[O-])c2cc(C#N)ccc2CC1"
  quantity-kind: "ED50"
  endpoint-value: 0.086

Provide reported ED50 for each item, in the same order as listed.
1. Cc1cc2c(cc1C#N)OCC(C)(C)C=C2c1cccc[n+]1[O-]
2. Cc1cc2c(cc1C#N)C(c1cccc[n+]1[O-])=CC(C)(C)CO2

Result:
0.31
0.15
